Reference source for all entries: patent US20260297070A1

target: human Werner helicase (WRN-BV08, Uniprot Q14191, amino acids 517-1235 with L1074F point mutation) (Homo sapiens, UniProt Q14191, L1074F); construct: Uniprot Q14191, amino acids 517-1235 with L1074F point mutation; TEV-cleavable 8×His (C, cleaved yes); made in house; host or cells: Sf9 insect cells (baculovirus); assay: WRN (BV08) ADP-Glo Assay; format: biochemical; details: 0.15 nM WRN, 5 μM ATP, 0.1 nM DNA duplex, 15 min preincubation, 60 min at 25° C., pH 7.5, 1% DMSO; read-out: ADP-Glo_hWRN_IC50
Sequence (Q14191 with tags, fused parts or gaps L1074F limits assumed): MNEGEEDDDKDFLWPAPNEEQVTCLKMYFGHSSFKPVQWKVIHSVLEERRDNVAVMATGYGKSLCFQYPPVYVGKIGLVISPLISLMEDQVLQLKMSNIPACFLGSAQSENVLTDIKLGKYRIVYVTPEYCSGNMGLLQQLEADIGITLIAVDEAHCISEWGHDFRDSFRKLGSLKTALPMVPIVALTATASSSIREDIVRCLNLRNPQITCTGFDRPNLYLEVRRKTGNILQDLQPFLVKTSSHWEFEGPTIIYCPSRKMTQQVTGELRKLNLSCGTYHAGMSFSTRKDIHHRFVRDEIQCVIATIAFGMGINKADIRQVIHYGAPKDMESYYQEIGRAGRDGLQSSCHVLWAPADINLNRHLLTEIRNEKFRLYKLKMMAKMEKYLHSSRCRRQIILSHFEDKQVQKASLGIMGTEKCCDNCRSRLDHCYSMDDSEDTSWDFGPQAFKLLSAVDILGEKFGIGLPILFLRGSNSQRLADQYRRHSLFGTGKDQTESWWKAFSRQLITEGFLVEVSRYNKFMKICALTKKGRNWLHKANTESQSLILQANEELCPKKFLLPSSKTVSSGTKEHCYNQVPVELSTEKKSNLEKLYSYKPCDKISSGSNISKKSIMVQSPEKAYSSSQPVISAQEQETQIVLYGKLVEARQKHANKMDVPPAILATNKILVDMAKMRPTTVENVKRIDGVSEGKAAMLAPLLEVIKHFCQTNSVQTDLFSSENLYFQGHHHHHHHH
pIC50: −log10 of the molar value.
recordedMetric: pIC50

Here is how some compounds turned out for pIC50.
(Q) I have this compound here, CN(C)C(=O)CC(C(=O)N(Cc1ccncc1)C1C=CS(=O)(=O)C1)c1ccc(-c2ccc(F)cc2)cc1 (centres unmarked) , and I need its recorded pIC50.
(A) < 4.30

(Q) I have this compound here, O=C(Cc1ccc(C2CC2)cc1)N(Cc1ccncc1)C1C=CS(=O)(=O)C1 (centres unmarked) , and I need its recorded pIC50.
(A) 5.00 to 5.30

(Q) I have this compound here, COc1cc(CN(C(=O)Cc2ncc(-c3ccc(F)cc3)cc2F)C2C=CS(=O)(=O)C2)ccn1 (centres unmarked) , and I need its recorded pIC50.
(A) 5.30 to 6.30

(Q) I have this compound here, COc1ccc2[nH]c(CC(=O)N(Cc3ccncc3)C3C=CS(=O)(=O)C3)cc2c1 (centres unmarked) , and I need its recorded pIC50.
(A) < 4.30

(Q) I have this compound here, COc1cc(CN(C(=O)C(OCCO)c2ccc(-c3ccc(F)c(F)c3)cc2F)[C@@H]2C=CS(=O)(=O)C2)ccn1 (some centres unmarked) , and I need its recorded pIC50.
(A) > 6.30

Next:
(Q) I have this compound here, O=C(Cc1ccc(-n2cccc2)cc1)N(Cc1nc2ccccc2s1)C1C=CS(=O)(=O)C1 (centres unmarked) , and I need its recorded pIC50.
(A) 5.30 to 6.30

(Q) I have this compound here, COc1cc(CN(C(=O)C(c2ccc(-c3ccc(F)c(F)c3)cc2F)n2nccc2C)[C@@H]2C=CS(=O)(=O)C2)ccn1 (single isomer, unassigned) [I-749] , and I need its recorded pIC50.
(A) 5.30 to 6.30

(Q) I have this compound here, COc1cccc(-c2ccc(CC(=O)N(Cc3ccncc3)C3C=CS(=O)(=O)C3)cc2)c1 (centres unmarked) , and I need its recorded pIC50.
(A) < 4.30
